Below, each entry is listed alongside its reported pIC50.
System: 8-MG-BA;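 also: growth inhibition of 8-MG-BA cells, read out with a cell viability assay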
Assay Notes: cells
Assay type: functional, cell-based, Homo sapiens
Reported Conditions: Homo sapiens, 8-MG-BA
Description: SANGER: Inhibition of human 8-MG-BA cell growth in a cell viability assay.
pIC50: −log10 of the molar value.

Here's what some known entries look like.
> print(dat)
                                   molecule  observed.result
1  CS(=O)(=O)c1ccc(C(=O)Nc2ccc(Cl)c(-c3ccccn3)c2)c(Cl)c1 [VISMODEGIB]           < 5.00
2  C#Cc1cccc(Nc2ncnc3cc(OCCOC)c(OCCOC)cc23)c1 [ERLOTINIB]           < 5.70
3  Cn1cnc2c(F)c(Nc3ccc(Br)cc3Cl)c(C(=O)NOCCO)cc21 [SELUMETINIB]           < 5.40

Shifting focus to the molecule that follows.
Exam item: State its pIC50 on 8-MG-BA: CC[C@H](CO)Nc1nc(NCc2ccccc2)c2ncn(C(C)C)c2n1 [SELICICLIB]
Marked response: < 4.80

###

# IC50 per record follows
System: NCI-H345;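 also: growth inhibition of NCI-H345 cells measured with a cell viability assay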
Assay Notes: cells
Type: functional, cell-based, Homo sapiens
Reported Conditions: Homo sapiens, NCI-H345
Description: SANGER: Inhibition of human NCI-H345 cell growth in a cell viability assay.

Compound	IC50
C=C(c1ccc(C(=O)O)cc1)c1cc2c(cc1C)C(C)(C)CCC2(C)C [BEXAROTENE]	> 8 µM
CCN(CC)CCNC(=O)c1c(C)[nH]c(/C=C2\C(=O)Nc3ccc(F)cc32)c1C [SUNITINIB]	> 8 µM
CCC/C=C/C=C/C(=O)O[C@H]1/C(=C/C(=O)OC)C[C@H]2C[C@H]([C@@H](C)O)OC(=O)C[C@H](O)C[C@@H]3C[C@H](OC(C)=O)C(C)(C)[C@](O)(C[C@@H]4C/C(=C/C(=O)OC)C[C@H](/C=C/C(C)(C)[C@]1(O)O2)O4)O3 [BRYOSTATIN 1]	> 0.008 µM
Oc1ccc2ccccc2c1SSc1c(O)ccc2ccccc12	> 32 µM

Now for a further compound.
Exam item: What does the record list as IC50 for N[C@@H](CSC(c1ccccc1)(c1ccccc1)c1ccccc1)C(=O)O [S-TRITYL-L-CYSTEINE] ?
Marked response: > 5.12 µM

###

Test system: TGBC24TKB
Assay Notes: cells
Assay type: functional, cell-based, Homo sapiens
Reported Conditions: Homo sapiens, TGBC24TKB
Description: SANGER: Inhibition of human TGBC24TKB cell growth in a cell viability assay.
pIC50: −log10 of the molar value.
Reported Property: pIC50

Molecule	pIC50
CCC/C=C/C=C/C(=O)O[C@H]1/C(=C/C(=O)OC)C[C@H]2C[C@H]([C@@H](C)O)OC(=O)C[C@H](O)C[C@@H]3C[C@H](OC(C)=O)C(C)(C)[C@](O)(C[C@@H]4C/C(=C/C(=O)OC)C[C@H](/C=C/C(C)(C)[C@]1(O)O2)O4)O3	< 8.10

Exam item: Bench note: what pIC50 did `Oc1ccc2ccccc2c1SSc1c(O)ccc2ccccc12` show?
Marked response: < 4.49

Exam item: # get_value(readout='pIC50', item= CC(C)CCN1c2nc(Nc3cc(F)c(O)c(F)c3)ncc2N(C)C(=O)C1C (centres undefined) )
Marked response: < 5.30

Exam item: Requested read-out: pIC50. Entry: `CS(=O)(=O)c1ccc(C(=O)Nc2ccc(Cl)c(-c3ccccn3)c2)c(Cl)c1`
Marked response: < 5.00

###

Test system: NEC8
Assay Notes: cells
Format: functional, cell-based, Homo sapiens
Reported Conditions: Homo sapiens, NEC8
Description: SANGER: Inhibition of human NEC8 cell growth in a cell viability assay.
IC50 overview

Study these solved cases before continuing.
> print(dat)
                                   molecule  observed.result
1  COc1cc2ncn(-c3cc(OCc4ccccc4S(C)(=O)=O)c(C#N)s3)c2cc1OC [GSK-319347A]           > 5 µM
2  COc1cc(N2CCN(C)CC2)ccc1Nc1ncc2c(n1)N(C)c1ccccc1C(=O)N2C           > 8 µM
3  C#Cc1cccc(Nc2ncnc3cc(OCCOC)c(OCCOC)cc23)c1           > 2 µM
4  CC1(C)CNc2cc(NC(=O)c3cccnc3NCc3ccncc3)ccc21           > 2 µM

Now take the following molecule into account.
Exam item: Checklist item: IC50 tested on NEC8, entry `C=C(c1ccc(C(=O)O)cc1)c1cc2c(cc1C)C(C)(C)CCC2(C)C` , value?;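 also: growth inhibition of human NEC8 cells, read out by a cell viability assay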
Marked response: > 8 µM

Where do the numbers come from? From ChEMBL document CHEMBL1201861.
